Give measured Cmax for each item. Keep answers brief.
- method: Oral pharmacokinetics in mice
- conditionNotes: male, Balb/C, mouse, in vivo, po, 10 mg/kg, Cmax, plasma, 10 mg/kg oral
Record the value in µg/mL, omitting the unit from your answer.

[ask] GET /values?readout=Cmax&item= Cc1cc(Nc2cc3ncccc3c(N[C@@H]3C[C@H]4CC[C@@H](C3)N4CCC#N)n2)n[nH]1
[reply] 0.0014

[ask] C[C@@H]1CCN(C(=O)CC#N)C[C@@H]1N(C)c1ncnc2[nH]ccc12 [tofacitinib, reference compound] ?
[reply] 0.193

###

- method: Oral pharmacokinetics in mice
- conditionNotes: male, Balb/C, mouse, in vivo, po, 10 mg/kg, Cmax, colon, 10 mg/kg oral
readout: Cmax (ng/g)
Record the value in ng/g, omitting the unit from your answer.

[ask] GET /values?readout=Cmax&item= Cc1cc(Nc2cc3ncccc3c(N[C@@H]3C[C@H]4CC[C@@H](C3)N4CCC#N)n2)n[nH]1 [TD-1473]
[reply] 3690

Data credit: paper PMC7493219
